src = the supplement of paper PMC12350171

Entries annotated with measured growth AUC normalised to DMSO control
- Test system: P. vulgatus WT;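 further: active when median AUC fell below 0.1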
- method summary: growth AUC normalised to DMSO control (median) (fraction of control); higher = less growth inhibition, active = hit call of the paper
- details: 20 µM
Structures can show the parent of a compound that is named as a salt.
Give your answer as a number; write no unit.

compound: C#C[C@]1(O)CC[C@H]2[C@@H]3CCC4=C(CCC(=O)C4)[C@H]3CC[C@@]21C
growth AUC normalised to DMSO control: 1.01
//
compound: C=C1C[C@H]2[C@@H]3C=C(C)C4=CC(=O)CC[C@]4(C)[C@H]3CC[C@]2(C)[C@@]1(OC(C)=O)C(C)=O [Melengestrol acetate]
growth AUC normalised to DMSO control: 1.02
//
compound: CN(C)/N=N/c1[nH]cnc1C(N)=O
growth AUC normalised to DMSO control: 1.03

Enquiry: Looking for the measured growth AUC normalised to DMSO control of Cc1cc(C)nc(NS(=O)(=O)c2ccc(N)cc2)n1 [Sulfamethazine sodium salt] , can you help?
Return: 0.988

----------
- Test system: Vibrio cholerae
- method summary: growth AUC normalised to DMSO control (fraction of control); higher = less growth inhibition, active = hit call of the paper
- details: 20 µM
Structures can show the parent of a compound that is named as a salt.
assay metric: growth AUC normalised to DMSO control
Give your answer as a number; write no unit.

compound: Cn1cnc([N+](=O)[O-])c1Sc1ncnc2[nH]cnc12
growth AUC normalised to DMSO control: 1.01
--
compound: C[n+]1ccccc1/C=N/O [Pralidoxime chloride]
growth AUC normalised to DMSO control: 0.971
--
compound: Cc1c(OCC(F)(F)F)ccnc1C[S+]([O-])c1nc2ccccc2[nH]1 (configuration not stated)
growth AUC normalised to DMSO control: 0.941
--
compound: CCN(CC)CCOc1ccc(C(=C(Cl)c2ccccc2)c2ccccc2)cc1 [(Z,E) Clomiphene citrate]
growth AUC normalised to DMSO control: 1.01
--
compound: O=C1c2ccccc2C(=O)C1c1ccccc1
growth AUC normalised to DMSO control: 0.983
--
compound: Nc1ccccc1S(N)(=O)=O [o-Sulfanilamide]
growth AUC normalised to DMSO control: 0.988

Enquiry: Looking for the measured growth AUC normalised to DMSO control of CC(C)(CO)[C@@H](O)C(=O)NCCCO , can you help?
Return: 0.998

Enquiry: Looking for the measured growth AUC normalised to DMSO control of NC[C@@H]1O[C@H](O[C@H]2[C@@H](O)[C@H](O[C@@H]3[C@@H](O)[C@H](N)C[C@H](N)[C@H]3O[C@H]3O[C@H](CN)[C@@H](O)[C@H](O)[C@H]3N)O[C@@H]2CO)[C@H](N)[C@@H](O)[C@@H]1O [Neomycin sulfate] , can you help?
Return: 1.05

Enquiry: Looking for the measured growth AUC normalised to DMSO control of O=C(NCC(O)CO)c1c(I)c(C(=O)NCC(O)CO)c(I)c(N(CCO)C(=O)CO)c1I (configuration not stated) , can you help?
Return: 1.07

Enquiry: Looking for the measured growth AUC normalised to DMSO control of CC(C)NC[C@@H](O)COc1ccc(CC(N)=O)cc1 [(R,+) Atenolol] , can you help?
Return: 1.07

Enquiry: Looking for the measured growth AUC normalised to DMSO control of CCOC(=O)n1ccn(C)c1=S , can you help?
Return: 0.981

Enquiry: Looking for the measured growth AUC normalised to DMSO control of CC(=O)[C@H]1CC[C@H]2[C@@H]3CCC4=CC(=O)CC[C@]4(C)[C@H]3CC[C@]12C , can you help?
Return: 1

Enquiry: Looking for the measured growth AUC normalised to DMSO control of CC/C(=C(\c1ccccc1)c1ccc(OCCN(C)C)cc1)c1ccccc1 [Tamoxifen citrate] , can you help?
Return: 1

Enquiry: Looking for the measured growth AUC normalised to DMSO control of CN(C)c1ccc(O)c2c1C[C@H]1C[C@H]3[C@H](N(C)C)C(=O)C(C(N)=O)=C(O)[C@@]3(O)C(=O)C1=C2O [Minocycline hydrochloride] , can you help?
Return: 0.0305
